Target: SARM1 (Homo sapiens)
Construct: made in house; host or cells: NRK1-HEK293T cells, transiently transfected; clarified lysate used unpurified
Sequence (Q6SZW1 with tags, fused parts or gaps): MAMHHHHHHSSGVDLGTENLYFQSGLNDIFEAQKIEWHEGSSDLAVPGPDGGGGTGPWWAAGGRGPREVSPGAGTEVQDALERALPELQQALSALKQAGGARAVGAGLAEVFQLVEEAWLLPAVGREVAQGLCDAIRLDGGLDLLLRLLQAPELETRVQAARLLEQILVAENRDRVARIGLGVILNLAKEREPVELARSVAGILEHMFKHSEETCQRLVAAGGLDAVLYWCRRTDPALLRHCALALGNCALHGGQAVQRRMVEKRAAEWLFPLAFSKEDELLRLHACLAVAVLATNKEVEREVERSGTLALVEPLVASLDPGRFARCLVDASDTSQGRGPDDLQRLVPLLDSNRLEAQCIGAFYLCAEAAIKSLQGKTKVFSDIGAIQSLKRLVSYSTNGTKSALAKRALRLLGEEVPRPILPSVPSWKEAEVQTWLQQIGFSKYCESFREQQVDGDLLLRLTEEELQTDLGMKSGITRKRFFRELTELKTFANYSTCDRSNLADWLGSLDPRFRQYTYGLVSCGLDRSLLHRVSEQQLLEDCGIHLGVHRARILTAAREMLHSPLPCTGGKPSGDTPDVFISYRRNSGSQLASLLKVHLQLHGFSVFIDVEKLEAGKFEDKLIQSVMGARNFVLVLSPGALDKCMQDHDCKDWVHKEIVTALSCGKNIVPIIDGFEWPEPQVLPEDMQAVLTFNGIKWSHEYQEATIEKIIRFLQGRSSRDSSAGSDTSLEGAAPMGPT
Experiment: ARM-SAM-TIR SARM1 IC50 assay (NADase activity, NAD+ cleavage)
Type: biochemical
Conditions: ARM-SAM-TIR lysate 5 μg/mL from NRK1-HEK293T cells; 2 h pre-incubation; 5 μM NAD+; 2 hr room temperature; NAD+ and ADPR by RapidFire MS; read-out: SARM1 IC50
value_kind: IC50

Input line: Value lookup for IC50; key = COc1cncc(NCc2ccc(-c3ccncc3)nc2)n1 [Example 141]
Output line: 5 to 15 µM

Input line: Now give it for COc1cncc(NS(=O)(=O)c2ccccc2)c1 [Example 209] too.
Output line: > 30 µM

Input line: Can you check COc1cnnc(NCc2cccnc2)c1 [Example 94] next?
Output line: 15 to 30 µM

Input line: Subsequent entry: COc1cncc(NCc2cnc(C)o2)n1 [Example 121]
Output line: 5 to 15 µM

Input line: Another compound to check: Cn1cc(CNc2cncc(NCCCCO)n2)cn1 [Example 151]
Output line: 5 to 15 µM

Input line: Can you handle COc1cncc(NCc2ccc(C#N)cc2)n1 [Example 129] next?
Output line: 5 to 15 µM
